Quick reference: pIC50 of the listed items.
- Test system: HepG2 cells
- assay protocol: Cytotoxic activity (MTS assay), HepG2
- Format: cell-based, human
- cond: Homo sapiens, HepG2; 24 h, MTS
pIC50: −log10 of the molar value.
quantity kind: pIC50

1. CCc1c2c(nc3ccc(OC(=O)N4CCC(N5CCCCC5)CC4)cc13)-c1cc3c(c(=O)n1C2)COC(=O)[C@]3(O)CC [irinotecan, reference compound]: 6.22
2. C=C(C)C(CC=C(C)C)Cc1cc(OC)ccc1C1Oc2cc(O)cc(CC(CC=C(C)C)C(=C)C)c2C(=O)C1O (centres unmarked) [Compound 1]: 5.02
